- TARGET_ENTITY: human recombinant serotonin (5-Hydroxytryptamine) 5-HT2A receptor (Homo sapiens)
- Construct: expressed in transfected cells; host or cells: CHO-K1 cells
- Sequence (P28223 whole entry): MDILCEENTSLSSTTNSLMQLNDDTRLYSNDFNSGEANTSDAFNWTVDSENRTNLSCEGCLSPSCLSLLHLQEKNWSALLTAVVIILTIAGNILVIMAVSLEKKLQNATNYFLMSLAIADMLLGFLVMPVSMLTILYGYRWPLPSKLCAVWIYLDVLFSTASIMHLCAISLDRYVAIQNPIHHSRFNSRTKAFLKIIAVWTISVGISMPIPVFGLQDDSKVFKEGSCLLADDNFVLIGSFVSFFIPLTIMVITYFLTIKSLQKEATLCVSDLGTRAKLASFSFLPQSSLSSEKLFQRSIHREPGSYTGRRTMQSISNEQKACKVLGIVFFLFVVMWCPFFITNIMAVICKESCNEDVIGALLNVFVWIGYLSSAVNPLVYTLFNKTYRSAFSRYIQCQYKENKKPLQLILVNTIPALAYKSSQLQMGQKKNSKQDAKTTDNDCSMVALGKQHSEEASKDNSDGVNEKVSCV
- TEST_NAME: Serotonin 5-HT2A radioligand binding ([3H]Ketanserin)
- CONDITION_SUMMARY: compound at 1 μM; read-out: Serotonin (1 μM) 5-HT2A, percent inhibition of specific binding
ENDPOINT: inhibition at 1 µM (%)
Write the answer as a number in %, unit excluded.

Solved cases below.
Cc1ccc2c(c1)c1c(n2CC(=O)OC2CCCC2)CCN(C)CC1; -2
Cc1ccc2c(c1)c1c(n2CC(O)c2ccc(Cl)cc2)CCN(C)CC1 (stereo not drawn); 102

Moving on to the next compound.
In: Tell me the measured inhibition at 1 µM of "CN1CCc2c(n(/C=C/c3ccccc3F)c3ccc(Cl)cc23)CC1" , please.
Out: 99
